Data origin, for the record: paper PMC6017838

For each record, write down the corresponding MIC50.
- System: C. albicans (ATCC 24433)
Give bare numbers, in µg/mL.

Example entries and their recorded answers appear below.
CC1CCN(c2ccc(C=CC(=O)c3ccc(-n4ccnc4)cc3)cc2)CC1 [Compound 3i] :: 50
Cc1ccc(Oc2ccc(C=CC(=O)c3ccc(-n4ccnc4)cc3)cc2)cc1 [Compound 3a] :: 3.12
OC(Cn1cncn1)(Cn1cncn1)c1ccc(F)cc1F [Fluconazole, reference compound] :: 0.78

# evaluate next
**Q:** Endpoint output: MIC50 of CN(C)CCCN1CCN(c2ccc(C=CC(=O)c3ccc(-n4ccnc4)cc3)cc2)CC1 [Compound 3o] . Value?
**A:** 50

----------
For each record, write down the corresponding melting point.

Example entries and their recorded answers appear below.
O=C(C=Cc1ccc(N2CCCCC2)cc1)c1ccc(-n2ccnc2)cc1 [Compound 3g] :: 198 to 199 °C
CN(C)CCN1CCN(c2ccc(C=CC(=O)c3ccc(-n4ccnc4)cc3)cc2)CC1 [Compound 3n] :: 146 to 149 °C
COc1ccc(Sc2ccc(C=CC(=O)c3ccc(-n4ccnc4)cc3)cc2)cc1 [Compound 3d] :: 177 to 179 °C
CC1CCCN(c2ccc(C=CC(=O)c3ccc(-n4ccnc4)cc3)cc2)C1 (stereo not drawn) [Compound 3h] :: 163 to 165 °C
Cc1ccc(Oc2ccc(C=CC(=O)c3ccc(-n4ccnc4)cc3)cc2)cc1 [Compound 3a] :: 146 to 148 °C

Provide melting point values for the following items, in order.
1. CN(C)CCCN1CCN(c2ccc(C=CC(=O)c3ccc(-n4ccnc4)cc3)cc2)CC1 [Compound 3o]
2. Cc1ccc(Sc2ccc(C=CC(=O)c3ccc(-n4ccnc4)cc3)cc2)cc1 [Compound 3b]
3. CN1CCN(c2ccc(C=CC(=O)c3ccc(-n4ccnc4)cc3)cc2)CC1 [Compound 3l]
4. CC1CC(C)CN(c2ccc(C=CC(=O)c3ccc(-n4ccnc4)cc3)cc2)C1 (stereo not drawn) [Compound 3j]

**A:**
1: 138 to 141 °C; 2: 168 to 169 °C; 3: 205 to 207 °C; 4: 160 to 161 °C

----------
- Test system: NIH/3T3 mouse embryonic fibroblast cell line
- test protocol: MTT cytotoxicity test
- Format: cell-based
- protocol conditions: NIH3T3, cytotoxic activity, NIH/3T3 cell line
- Method: The main cause of failure in all stages of the new drug development process is toxicity. Early identification of toxicities of drug candidates is very important in terms of drug development studies. […] Cytotoxicity of selected compounds (3a–3d), displaying strong anticandidal activity and good predicted pharmacokinetics, was determined against NIH/3T3 mouse embryonic fibroblast cell lines (ATCC CRL1658). […]
For each record, write down the corresponding IC50.
Answers are plain numbers, in µg/mL.

COc1ccc(Sc2ccc(C=CC(=O)c3ccc(-n4ccnc4)cc3)cc2)cc1 :: 388

# evaluate next
**Q:** For NIH/3T3 mouse embryonic fibroblast cell line, provide IC50 of `COc1ccc(Oc2ccc(C=CC(=O)c3ccc(-n4ccnc4)cc3)cc2)cc1` please.
**A:** 436

----------
reported property: melting point

Example entries and their recorded answers appear below.
O=C(C=Cc1ccc(N2CCCC2)cc1)c1ccc(-n2ccnc2)cc1 [Compound 3e] :: 186 to 188 °C
O=C(C=Cc1ccc(N2CCC(Cc3ccccc3)CC2)cc1)c1ccc(-n2ccnc2)cc1 [Compound 3k] :: 178 to 180 °C
COc1ccc(Oc2ccc(C=CC(=O)c3ccc(-n4ccnc4)cc3)cc2)cc1 [Compound 3c] :: 168 to 170 °C
CCN1CCN(c2ccc(C=CC(=O)c3ccc(-n4ccnc4)cc3)cc2)CC1 [Compound 3m] :: 188 to 189 °C
O=C(C=Cc1ccc(N2CCOCC2)cc1)c1ccc(-n2ccnc2)cc1 [Compound 3f] :: 214 to 215 °C

# evaluate next
**Q:** Endpoint output: melting point of CC1CCN(c2ccc(C=CC(=O)c3ccc(-n4ccnc4)cc3)cc2)CC1 [Compound 3i] . Value?
**A:** 189 to 191 °C
